System: SF162 pseudovirus (clade B)
Experiment: HIV-1 neutralization assay (Env-pseudotyped virus, Luc reporter)
Format: cell-based
Conditions: TZM-b1 cells, TFV concentration in combination, mean ± SEM, read-out: IC50 in a respective combination with VRC01p
OBSERVED_PROPERTY: IC50 (nM)
// units = nM; emit number, no label

IC50 lookup needed for `C[C@H](Cn1cnc2c(N)ncnc21)OCP(=O)(O)O` , thanks.
880

---

System: Q769.h5 pseudovirus (clade A)
Test: HIV-1 neutralization assay (Env-pseudotyped virus, Luc reporter)
Type: cell-based
Settings: TZM-b1 cells, TFV concentration in combination, mean ± SEM, read-out: IC50 in a respective combination with VRC01p
OBSERVED_PROPERTY: IC50 (nM)
Only the number, expressed in nM, is required.

API: value(readout= IC50, system= Q769.h5 pseudovirus (clade A), query= C[C@H](Cn1cnc2c(N)ncnc21)OCP(=O)(O)O [TFV, tenofovir] )
2090
